This collection of values is drawn from PubChem BioAssay (Tox21).

- ASSAY DETAILS: qHTS assay to identify small molecule antagonists of the sonic hedgehog signaling (Shh) pathway (AID 1259369); note: nearly all actives have a fitted effect of over 45% in size; note: potency is the fitted concentration of half-maximal effect
- TEST PARAMETERS: NIH/3T3 Gli1-Luc reporter, Shh antagonist, luminescence 24 h; series mostly up to 92.4 µM
Records with an inconclusive call do not appear. The source made the active and inactive calls. Calls come from the whole dose curve.
OBSERVATION TYPE: Potency

// below: answered molecules
molecule=CN(C/C=C/c1ccccc1)Cc1cccc2ccccc12 observation_type=Potency result=inactive
molecule=CC(C)C(=O)C(C)C observation_type=Potency result=inactive
molecule=O=C(Nc1ccccc1)c1cc(Cl)ccc1O observation_type=Potency result="15.4 µM (active)"
molecule=O=C1CCCCCCCCCCCCCC1 observation_type=Potency result=inactive
molecule=Cc1ccc(Cl)c(N)c1Cl observation_type=Potency result="21.7 µM (active)"
molecule=COc1cccc(-c2ccc(/C=C\CN3CCCCCC3)cc2Cl)c1 observation_type=Potency result="10.8 µM (active)"

Kindly review the next molecule as well.
// query Which Potency is listed for `CC1=CC[C@@H](C(C)(C)O)CC1` ?
// result inactive
